- system.tested: hERG potassium currents (CHO-K1 cells stably transfected with hERG) (Homo sapiens, UniProt Q12809)
- Sequence (Q12809 whole entry): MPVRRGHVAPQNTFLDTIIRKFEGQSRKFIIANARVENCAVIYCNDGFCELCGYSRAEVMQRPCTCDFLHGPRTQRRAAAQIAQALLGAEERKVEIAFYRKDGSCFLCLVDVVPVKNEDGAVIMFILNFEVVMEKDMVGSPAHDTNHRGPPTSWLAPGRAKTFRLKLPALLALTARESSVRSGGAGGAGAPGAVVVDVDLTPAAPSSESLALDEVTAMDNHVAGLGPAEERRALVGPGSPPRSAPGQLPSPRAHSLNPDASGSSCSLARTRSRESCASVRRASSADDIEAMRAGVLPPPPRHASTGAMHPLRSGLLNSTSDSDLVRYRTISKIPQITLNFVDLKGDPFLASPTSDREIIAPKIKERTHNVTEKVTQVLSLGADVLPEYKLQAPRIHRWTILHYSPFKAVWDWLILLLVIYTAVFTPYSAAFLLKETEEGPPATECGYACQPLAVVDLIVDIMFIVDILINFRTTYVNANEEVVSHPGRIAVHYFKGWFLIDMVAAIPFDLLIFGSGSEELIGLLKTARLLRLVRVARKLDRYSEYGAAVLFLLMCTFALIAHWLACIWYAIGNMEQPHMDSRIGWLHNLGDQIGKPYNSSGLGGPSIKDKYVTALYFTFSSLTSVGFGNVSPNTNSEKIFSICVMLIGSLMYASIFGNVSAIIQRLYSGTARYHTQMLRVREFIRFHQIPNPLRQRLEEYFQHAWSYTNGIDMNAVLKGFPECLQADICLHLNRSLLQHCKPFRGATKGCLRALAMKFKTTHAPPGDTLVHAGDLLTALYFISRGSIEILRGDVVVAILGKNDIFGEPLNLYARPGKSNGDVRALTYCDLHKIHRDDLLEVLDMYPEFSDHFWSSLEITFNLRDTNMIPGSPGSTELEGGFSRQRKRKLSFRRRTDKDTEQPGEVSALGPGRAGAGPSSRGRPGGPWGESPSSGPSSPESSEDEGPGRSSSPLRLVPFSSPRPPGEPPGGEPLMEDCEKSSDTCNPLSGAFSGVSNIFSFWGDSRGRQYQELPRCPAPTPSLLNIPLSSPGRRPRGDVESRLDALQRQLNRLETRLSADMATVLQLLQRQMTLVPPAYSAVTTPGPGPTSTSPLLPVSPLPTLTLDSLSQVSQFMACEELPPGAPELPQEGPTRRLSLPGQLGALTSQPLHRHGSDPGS
- assay.protocol: Automated whole-cell patch-clamp hERG assay
- experimental.parameters: Qpatch, tail current, CHO-K1 cells, 0.39 μM to 100 μM cumulatively
reported.metric: IC50 (µM)

> print(dat)
                                   molecule  modifier.sign  readout.value
1  Cc1cc2c(cc1Cl)nc(N1CCC(C(=O)N[C@@H]3CCOC3)CC1)n2-c1ccc(C(F)(F)F)cn1 [Comparative Example 3]              =             19
2  Cc1cc2nc(N3CCC(C(=O)N[C@@H]4CCOC4)CC3)n(-c3ccc(C(F)(F)F)cn3)c2cc1Cl [Comparative Example 4]              =             14
3  Cc1cc2c(cc1Cl)nc(N1CCC(C(=O)N[C@H]3COC[C@@H]3O)CC1)n2-c1cccc(C(F)(F)F)n1 [Example 1]              =             38
4  O=C(N[C@@H]1CCOC1)C1CCN(c2nc3cc(Cl)c(Cl)cc3n2-c2cccc(C(F)(F)F)n2)CC1 [Comparative Example 5]              =            2.1
5  Cc1cc2nc(N3CCC(C(=O)N[C@H]4COC[C@@H]4O)CC3)n(-c3cccc(C(F)(F)F)n3)c2cc1Cl [Example 2]              >            100
